# target.desc: Recombinant human HDAC1 (Homo sapiens, UniProt Q13547)
# Construct: purchased BPS Bioscience Inc
# Sequence (Q13547 whole entry): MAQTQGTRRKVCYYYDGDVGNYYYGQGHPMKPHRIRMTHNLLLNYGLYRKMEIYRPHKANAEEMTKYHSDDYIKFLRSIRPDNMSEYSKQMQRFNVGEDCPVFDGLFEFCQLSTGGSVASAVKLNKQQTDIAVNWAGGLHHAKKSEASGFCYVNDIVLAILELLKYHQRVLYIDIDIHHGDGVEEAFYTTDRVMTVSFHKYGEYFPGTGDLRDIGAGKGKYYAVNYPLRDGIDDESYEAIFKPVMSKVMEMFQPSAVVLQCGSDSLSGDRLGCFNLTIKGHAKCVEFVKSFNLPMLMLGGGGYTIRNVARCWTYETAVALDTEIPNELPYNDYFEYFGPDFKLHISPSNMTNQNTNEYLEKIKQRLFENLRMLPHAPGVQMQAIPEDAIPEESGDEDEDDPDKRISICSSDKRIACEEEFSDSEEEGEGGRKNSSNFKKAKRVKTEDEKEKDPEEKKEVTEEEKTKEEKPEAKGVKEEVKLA
# procedure.text: HDAC-Glo I/II assay, HDAC1
# Assay type: biochemical
# test.context: Class I HDAC; compounds reduced by TCEP prior to assay; read-out: IC50 of HDAC1
Documented IC50 across a set of compounds

compound	IC50
CCC(C)C(NC(=O)CC(O)/C=C/CCS)C(=O)O (centres unmarked)	3.9 nM
CCC(C)[C@H]1NC(=O)[C@H]2CSSCC/C=C/[C@H](CC(=O)N[C@H](CCSC)C(=O)N2)OC(=O)C[C@@H]1OCCC=O (some centres unmarked)	9.6 nM
CCCC[C@H]1NC(=O)C[C@H]2/C=C/CCSSC[C@@H](NC1=O)C(=O)N[C@H](C(C)CC)[C@@H](O)CC(=O)O2 (some centres unmarked) [TDP-B, Thailandepsin B, reference compound]	2.2 nM
COC(=O)[C@@H](NC(=O)CC(O)/C=C/CCS)C(C)C (some centres unmarked)	30.2 nM
CCC(C)C(NC(=O)CC(O)/C=C/CCS)C(=O)OC (centres unmarked)	30.3 nM

###

# target.desc: Recombinant human HDAC2 (Homo sapiens, UniProt Q92769)
# Sequence (Q92769 whole entry): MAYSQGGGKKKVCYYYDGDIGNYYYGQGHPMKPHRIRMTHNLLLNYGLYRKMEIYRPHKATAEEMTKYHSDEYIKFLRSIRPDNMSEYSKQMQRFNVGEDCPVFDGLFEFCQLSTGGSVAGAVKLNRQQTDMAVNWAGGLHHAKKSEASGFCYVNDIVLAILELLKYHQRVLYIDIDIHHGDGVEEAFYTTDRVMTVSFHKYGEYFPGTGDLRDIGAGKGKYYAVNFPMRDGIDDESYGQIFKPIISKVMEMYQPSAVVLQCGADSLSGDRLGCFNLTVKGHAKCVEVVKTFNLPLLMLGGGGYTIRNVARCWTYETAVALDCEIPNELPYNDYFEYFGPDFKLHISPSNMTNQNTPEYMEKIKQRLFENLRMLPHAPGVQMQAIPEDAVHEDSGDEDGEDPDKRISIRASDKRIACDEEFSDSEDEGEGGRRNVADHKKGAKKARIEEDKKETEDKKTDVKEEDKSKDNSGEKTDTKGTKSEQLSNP
# procedure.text: HDAC-Glo I/II assay, HDAC2
# test.context: Class I HDAC; compounds reduced by TCEP prior to assay
pIC50: −log10 of the molar value.

compound	pIC50
CCC(C)[C@H]1NC(=O)[C@H]2CSSCC/C=C/[C@H](CC(=O)N[C@H](CCSC)C(=O)N2)OC(=O)C[C@@H]1OC(=O)c1ccccc1 (some centres unmarked) [TDC1]	7.29
CCC(C)C(NC(=O)CC(O)/C=C/CCS)C(=O)OC (centres unmarked) [TDF4m]	5.67
CCCC[C@H](NC(=O)CC(O)/C=C/CCS)C(=O)OC (some centres unmarked) [TDF5m]	5.78
CCC(C)[C@H]1NC(=O)[C@H]2CSSCC/C=C/[C@H](CC(=O)N[C@H](CCSC)C(=O)N2)OC(=O)C[C@@H]1OCCC=O (some centres unmarked) [TDC2]	7.43
CCCC[C@H](NC(=O)CC(O)/C=C/CCS)C(=O)O (some centres unmarked) [TDF5]	7.34
CCC(C)[C@H]1NC(=O)[C@H]2CSSCC/C=C/[C@H](CC(=O)N[C@H](CCSC)C(=O)N2)OC(=O)C[C@@H]1OC(C)=O (some centres unmarked) [TDC3]	7.35
CSCC[C@H]1NC(=O)CC(O)/C=C/CCSSC[C@H](C(=O)O)NC1=O (some centres unmarked) [TDF3]	7.06
COC(=O)[C@@H](NC(=O)CC(O)/C=C/CCS)C(C)C (some centres unmarked) [TDF6m]	5.71

###

# test.context: 10 mg/mL cpd in 20% DMSO/saline
endpoint.name: Solubility

compound	result
CCC(C)[C@H]1NC(=O)[C@H]2CSSCC/C=C/[C@H](CC(=O)N[C@H](CCSC)C(=O)N2)OC(=O)C[C@@H]1OC(=O)c1ccccc1 (stereo partly drawn)	Not soluble
CCC(C)[C@H]1NC(=O)[C@H]2CSSCC/C=C/[C@H](CC(=O)N[C@H](CCSC)C(=O)N2)OC(=O)C[C@@H]1OC(C)=O (stereo partly drawn)	Not soluble
CC(C)[C@H](NC(=O)CC(O)/C=C/CCS)C(=O)O (stereo partly drawn)	Soluble
CCC(C)[C@H]1NC(=O)[C@H]2CSSCC/C=C/[C@H](CC(=O)N[C@H](CCSC)C(=O)N2)OC(=O)C[C@@H]1O (stereo partly drawn) [TDP-A, Thailandepsin A, reference compound]	Not soluble
COC(=O)[C@@H](NC(=O)CC(O)/C=C/CCS)C(C)C (stereo partly drawn)	Soluble
